Please go through the items and note down their composite z-score.
Tested on: Human papillomavirus type 1a protein E7 (residues 44-93)
Test: HPV1a E7 fragment binders on microarrays, primary screen, biochemical, small-molecule microarray, residues 44-93, 635 nm fluorescence (AID 1108);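 also: E7 fragment applied at 1 µg/mL in TBST for 1 h at 4 C; score combines spot fluorescence with its signal to noise ratio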
Conditions: small-molecule microarray binding, fluorescence 635 nm; higher = more signal
One number for each entry.

# compound, composite z-score
records = [
    ("COc1cccc(C)c1NC(=O)O[C@H]1[C@H](OC(=O)Nc2ccccc2)[C@@H](OC(=O)Nc2ccccc2)[C@@H](OC)O[C@@H]1CO", 1.52),
    ("O=C1C2C=CC(C(O)C3CCCCC3)N(Nc3ccccc3F)C2C(=O)N1c1ccccc1 (stereo unspecified)", 1.45),
    ("O=C1c2ccccc2[C@](Cc2ccccc2I)(C(=O)NCCN2CCOCC2)[C@H](c2ccc(CO)cc2)N1Cc1ccccc1C(F)(F)F", 1.4),
    ("COc1cc(Cc2cc3c(c(-c4ccccc4)n2)[Si](C(C)C)(C(C)C)OC3)cc(OC)c1OC", -1.82),
    ("O=C1NC(=O)C2C1C=CC(C(O)C(O)CO)N2Nc1ccccn1 (stereo unspecified)", 0.492),
    ("C=CCN1C(=O)[C@]2(O[C@H](CCO)[C@@H]([Si](C)(C)c3ccc(OC)cc3)[C@@H]2C)c2cc(N3C(=O)c4ccccc4Oc4ccccc43)ccc21", 1.3),
]

Give measured composite z-score for every item shown.
1. C=CCN1C(=O)[C@@]2(O[C@@H](CCO)[C@H]([Si](C)(C)c3ccc(OC)cc3)[C@H]2C)c2cc(N3CCCCC3=O)ccc21
2. C[N+](C)(C)CCCC[C@@H]1NC(=O)[C@H]2C[C@@H](C(=O)NCCCCCN)[C@@H](c3ccc(O)cc3)N2C1=O
3. COc1ccc([Si](C)(C)[C@H]2[C@H](CC(=O)N3CCC[C@H]3CO)O[C@@]3(C(=O)N(C)c4c(Br)cc(C)cc43)[C@@H]2C)cc1
4. CCOC(=O)C[C@H]1[C@H](OC(=O)c2cc3ccccc3oc2=O)[C@@H](NC(=O)Cc2ccc(OC)cc2)c2cc(OCCCO)ccc2N1C(=O)Cc1ccc(OC)cc1
5. CC1C2C(CCCO)=CC(C3C(=O)N(C)C(=O)C23)N1Cc1cccc(OC(F)(F)F)c1 (stereo unspecified)

OUT:
1.36
-0.0195
1.45
0.351
1.47

====

Test: small-molecule microarray binders of probe aWnt5a, primary screen, biochemical, biotinylated probe, 635/667 nm fluorescence (AID 1113);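 also: score merges 667 nm fluorescence intensity with signal-to-noise per printed feature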
Conditions: higher = more signal
Class class 1: composite z-score at least -0.06. Class class 0: composite z-score below -0.06.

IN: Threshold query (composite z-score >= -0.06) on CN1C(=O)C2C=CC(C(O)COCc3ccccc3)N(Nc3ccc([N+](=O)[O-])cc3[N+](=O)[O-])C2C1=O (stereo unspecified)
OUT: class 1

IN: Also COc1ccc(CCNC(=O)[C@@]2(c3ccc([N+](=O)[O-])cc3)CC(=O)N(C3CCCCC3)[C@@H]2c2ccc(CO)cc2I)cc1 , if possible.
OUT: class 0

IN: Continue with COCCOC(=O)N1C(=O)[C@@]2(c3cc(C#CC4(O)CCCCCC4)ccc31)[C@H](C(N)=O)[C@H]1C(=O)O[C@H](c3ccccc3)[C@H](c3ccccc3)N1[C@@H]2c1ccc(OCCO)cc1
OUT: class 1

IN: Next record, please: C=C1C(=O)C=C2CN(C(=O)c3ccccc3)[C@@](Cc3ccc(F)cc3)(C(=O)OC)[C@@H]12
OUT: class 1
